Reported Cell viability, WT values follow for various molecules
System: ARID1A-WT HCT116 cells
Experiment: Drug library screen, cell viability (CellTiter-Glo)
Assay type: cell-based, human

>  <Molecule>
NC(=O)c1ccc(-c2nc(-c3ccc4c(c3)OCCO4)c(-c3ccccn3)[nH]2)cc1 [D4476]

>  <Measured on>
ARID1A-WT HCT116 cells

>  <Cell viability, WT>
93.4

$$$$
>  <Molecule>
Nc1nc(OCc2ccccc2)c2nc[nH]c2n1 [Benzylguanine]

>  <Measured on>
ARID1A-WT HCT116 cells

>  <Cell viability, WT>
88.84

$$$$
>  <Molecule>
CC1=NN(c2ccc(C(=O)O)cc2)C(=O)/C1=C\c1ccc(-c2cc(C)c(C)cc2[N+](=O)[O-])o1 [C646]

>  <Measured on>
ARID1A-WT HCT116 cells

>  <Cell viability, WT>
93.09

$$$$
>  <Molecule>
O=C1Nc2ccc3ncsc3c2/C1=C/c1cnc[nH]1 [PKR inhibitor]

>  <Measured on>
ARID1A-WT HCT116 cells

>  <Cell viability, WT>
8.714

$$$$
